Sourced from patent US7495027B2

Tested on: Streptococci
Test: Minimum inhibitory concentration, microdilution broth method, streptococci
Assay type: cell-based
Details: S. pneumo GC 1894; Mueller-Hinton broth with 5% horse blood, 18-22 hours at 35° C.
Collected log10 of MIC values appear next to each entry.
Parameter: log10 of MIC (log10 of the value in µg/mL)

>  <Compound>
O=C1O/C(=C\c2cc(C(F)(F)F)ccc2Cl)C(O)=C1c1ccc(-c2ccccc2)cc1 [Example 125]

>  <Measured Number>
-0.30

$$$$
>  <Compound>
O=C1O/C(=C\c2ccc(-c3ccccc3)cc2)C(O)=C1c1ccc2ccccc2c1 [Example 45]

>  <Measured Number>
0.30

$$$$
>  <Compound>
O=C1O/C(=C\c2cccnc2)C(O)=C1c1ccc(-c2ccccc2)cc1 [Example 101]

>  <Measured Number>
1.81

$$$$
>  <Compound>
COc1ccccc1-c1ccc(/C=C2\OC(=O)C(c3cccc(Cl)c3)=C2O)cc1C [Example 23]

>  <Measured Number>
0.00

$$$$
>  <Compound>
O=C1O/C(=C\c2cccc3ccccc23)C(O)=C1c1cccc(C(F)(F)F)c1 [Example 5]

>  <Measured Number>
-0.30

$$$$
>  <Compound>
O=C1O/C(=C\c2cc(C(F)(F)F)ccc2F)C(O)=C1c1cccc(-c2ccccc2)c1 [Example 121]

>  <Measured Number>
-0.30

$$$$
>  <Compound>
Cc1ccc(/C=C2\OC(=O)C(c3ccc4ccccc4c3)=C2O)s1 [Example 41]

>  <Measured Number>
1.51

$$$$
>  <Compound>
O=C1O/C(=C\c2cccc3ccccc23)C(O)=C1c1ccc(-c2ccccc2)cc1 [R=H, R1=4-biphenyl, R2=1-naphthyl]

>  <Measured Number>
0.00

$$$$
>  <Compound>
O=C1O/C(=C\c2cccc(C(F)(F)F)c2)C(O)=C1c1ccc(-c2ccccc2)cc1 [Example 130]

>  <Measured Number>
-0.30

$$$$
>  <Compound>
O=Cc1cccc(C2=C(O)/C(=C/c3cccc4ccccc34)OC2=O)c1 [Example 76]

>  <Measured Number>
1.81

$$$$
>  <Compound>
O=C1O/C(=C\c2cccc(C(F)(F)F)c2Cl)C(O)=C1c1ccc(-c2ccccc2)cc1 [Example 113]

>  <Measured Number>
-0.60

$$$$
>  <Compound>
O=C1O/C(=C\c2cccc3ccccc23)C(O)=C1c1ccc(Cl)cc1 [Example 4]

>  <Measured Number>
0.00

$$$$
>  <Compound>
O=C1O/C(=C\c2ccc(-c3ccccc3)cc2)C(O)=C1c1cccc2ccccc12 [Example 50]

>  <Measured Number>
0.60

$$$$
>  <Compound>
COc1cc(/C=C2\OC(=O)C(c3cc(Cl)cc(Cl)c3)=C2O)ccc1-c1ccccc1C [Example 25]

>  <Measured Number>
-0.60

$$$$
>  <Compound>
Cc1ccccc1C1=C(O)/C(=C/c2ccc(-c3ccccc3C)cc2)OC1=O [Example 60]

>  <Measured Number>
0.90

$$$$
>  <Compound>
CCCc1ccc(-c2ccc(C3=C(O)/C(=C/c4cc(C(F)(F)F)ccc4Cl)OC3=O)cc2)cc1 [Example 127]

>  <Measured Number>
-0.60

$$$$
>  <Compound>
O=C1O/C(=C\c2cccc(-c3cccc(Cl)c3)c2)C(O)=C1c1cccc(Cl)c1 [Example 134]

>  <Measured Number>
0.00

$$$$
>  <Compound>
CN(C)c1ccc(/C=C2\OC(=O)C(c3cc(Cl)cc(Cl)c3)=C2O)c2ccccc12 [Example 79]

>  <Measured Number>
-0.30

$$$$
>  <Compound>
CCOc1ccc(-c2ccc(C3=C(O)/C(=C/c4cccc(C(F)(F)F)c4)OC3=O)cc2)cc1 [Example 133]

>  <Measured Number>
-0.30

$$$$
>  <Compound>
CCOc1ccc(-c2ccc(C3=C(O)/C(=C/c4cc(C(F)(F)F)ccc4Cl)OC3=O)cc2)cc1 [Example 129]

>  <Measured Number>
-0.60

$$$$
>  <Compound>
COc1cc(/C=C2\OC(=O)C(c3cc(Cl)cc(Cl)c3)=C2O)ccc1-c1ccccc1C(F)(F)F [Example 33]

>  <Measured Number>
-0.30

$$$$
>  <Compound>
CC(C)(C)c1ccc(-c2ccc(C3=C(O)/C(=C/c4cccc(C(F)(F)F)c4)OC3=O)cc2)cc1 [Example 132]

>  <Measured Number>
-0.60

$$$$
>  <Compound>
O=C1O/C(=C\c2cccc(C(F)(F)F)c2)C(O)=C1c1ccc(-c2ccccc2)c(F)c1 [Example 106]

>  <Measured Number>
-0.60

$$$$
>  <Compound>
O=C1O/C(=C\c2ccc(-c3ccccc3)cc2)C(O)=C1c1cccs1 [Example 144]

>  <Measured Number>
0.30

$$$$
>  <Compound>
Cc1cc(/C=C2\OC(=O)C(c3cccc(Cl)c3)=C2O)ccc1-c1ccccc1Cl [Example 30]

>  <Measured Number>
-0.60

$$$$
>  <Compound>
O=C1O/C(=C\c2cccc(C(F)(F)F)c2)C(O)=C1c1cccc2ccccc12 [Example 48]

>  <Measured Number>
0.90

$$$$
>  <Compound>
COc1ccc(C2=C(O)/C(=C/c3cccc4ccccc34)OC2=O)cc1 [Example 6]

>  <Measured Number>
0.90

$$$$
